These entries and their values trace back to ChEMBL document CHEMBL4616704.

study_target: PI3-kinase p110-alpha/p85-alpha (Homo sapiens)
Sequence (P27986 whole entry): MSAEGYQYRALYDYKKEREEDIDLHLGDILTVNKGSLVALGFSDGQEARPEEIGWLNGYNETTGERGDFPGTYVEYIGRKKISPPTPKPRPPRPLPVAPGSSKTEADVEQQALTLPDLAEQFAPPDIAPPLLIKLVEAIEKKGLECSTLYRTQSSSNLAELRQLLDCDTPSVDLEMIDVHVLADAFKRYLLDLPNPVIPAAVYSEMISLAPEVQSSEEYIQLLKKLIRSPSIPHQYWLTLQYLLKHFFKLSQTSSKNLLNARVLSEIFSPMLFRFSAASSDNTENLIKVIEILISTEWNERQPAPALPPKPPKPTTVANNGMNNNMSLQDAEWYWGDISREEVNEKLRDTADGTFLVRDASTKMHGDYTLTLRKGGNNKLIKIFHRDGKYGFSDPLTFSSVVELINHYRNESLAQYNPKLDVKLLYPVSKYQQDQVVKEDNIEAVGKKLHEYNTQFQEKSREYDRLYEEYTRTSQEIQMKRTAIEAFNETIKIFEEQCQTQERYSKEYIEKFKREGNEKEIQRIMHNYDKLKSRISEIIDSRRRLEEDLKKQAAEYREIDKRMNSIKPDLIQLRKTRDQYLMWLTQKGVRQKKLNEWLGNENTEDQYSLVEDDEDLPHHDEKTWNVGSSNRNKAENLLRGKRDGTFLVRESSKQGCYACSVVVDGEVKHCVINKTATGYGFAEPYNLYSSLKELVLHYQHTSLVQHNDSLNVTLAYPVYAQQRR
Sequence (P42336 whole entry): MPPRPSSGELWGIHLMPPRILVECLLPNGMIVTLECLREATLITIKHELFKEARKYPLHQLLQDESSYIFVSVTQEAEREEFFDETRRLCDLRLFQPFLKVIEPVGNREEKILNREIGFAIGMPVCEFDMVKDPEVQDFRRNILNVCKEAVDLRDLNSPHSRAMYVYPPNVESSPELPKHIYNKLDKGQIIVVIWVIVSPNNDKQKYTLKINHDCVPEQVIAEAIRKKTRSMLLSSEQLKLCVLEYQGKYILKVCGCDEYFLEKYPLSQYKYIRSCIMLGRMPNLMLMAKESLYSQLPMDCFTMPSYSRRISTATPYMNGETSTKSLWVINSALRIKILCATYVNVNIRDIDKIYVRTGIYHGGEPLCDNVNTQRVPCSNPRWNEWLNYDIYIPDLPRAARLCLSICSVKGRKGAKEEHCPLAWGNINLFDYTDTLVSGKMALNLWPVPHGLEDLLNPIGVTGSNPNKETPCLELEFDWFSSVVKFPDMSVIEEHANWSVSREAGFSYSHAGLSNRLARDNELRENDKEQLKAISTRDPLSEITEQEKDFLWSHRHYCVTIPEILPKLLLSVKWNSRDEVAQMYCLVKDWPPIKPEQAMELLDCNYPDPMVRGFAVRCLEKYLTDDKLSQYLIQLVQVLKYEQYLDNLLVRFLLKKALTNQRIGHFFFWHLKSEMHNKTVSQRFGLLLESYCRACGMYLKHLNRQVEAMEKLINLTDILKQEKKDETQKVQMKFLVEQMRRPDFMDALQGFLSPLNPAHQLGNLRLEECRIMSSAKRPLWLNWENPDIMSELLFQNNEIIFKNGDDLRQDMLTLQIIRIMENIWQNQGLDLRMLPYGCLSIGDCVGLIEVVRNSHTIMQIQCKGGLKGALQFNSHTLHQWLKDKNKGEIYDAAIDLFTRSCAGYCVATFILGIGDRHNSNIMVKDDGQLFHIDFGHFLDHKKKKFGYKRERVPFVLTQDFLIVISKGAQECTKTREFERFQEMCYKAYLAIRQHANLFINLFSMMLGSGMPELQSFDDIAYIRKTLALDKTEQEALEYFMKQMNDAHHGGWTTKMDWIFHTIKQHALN
procedure_text: Inhibition of human full length p110alpha/p85alpha using PIP2 as substrate after 30 mins in presence of ATP at 2xKm concentration by TR-FRET assay
Format: protein-complex assay
Measured IC50 of individual entries
I only need the number, in nM, no unit after it.

As a guide, the following entries are already answered.
molecule | property_measured | value
Cc1nc2c(-c3nnc[nH]3)cc(-c3ccnc(C(F)F)c3)cc2n1-c1ccnc2c(F)ccc(F)c12 | IC50 | 680
Cc1cc(-c2cc(-c3nnc[nH]3)c3nc(C)n(-c4ccnc5c(F)ccc(F)c45)c3c2)cc(N)n1 | IC50 | 6840
Clc1cccc2c(-n3cnc4c(-c5ncn[nH]5)cc(-c5ccncc5)cc43)ccnc12 | IC50 | 350
C[C@@H](Nc1cc(F)cc(F)c1)c1cc(C(=O)N(C)C)cc2c(=O)cc(N3CCOCC3)oc12 | IC50 | 450
Cc1cc(-c2cc(-c3nnc[nH]3)c3nc(C)n(-c4ccnc5c(F)ccc(F)c45)c3c2)ncn1 | IC50 | 1270
Cc1nccc(-c2cc(-c3nnc[nH]3)c3nc(C)n(-c4ccnc5c(F)ccc(F)c45)c3c2)n1 | IC50 | 55

Let us move to another entry and its IC50.
For reference, reported IC50 for Cc1cc(C(C)Nc2ccccc2)c2nc(N3CCOCC3)cc(=O)n2c1 (centres undefined) stands at 7600

* * *

procedure_text: Volume of distribution at steady state in cynomolgus monkey at 1 mg/kg administered as iv infusion for 30 mins and measured after 24 hrs by ESI-LC/MS/MS analysis
Format: ADME, organism-based, Macaca fascicularis
assay_setup: in vivo, read-out: Vdss
property_measured: Vd

compound_structure_string | property_measured | value
Cc1nc2c(-c3nnc[nH]3)cc(-c3ccnc(C#N)c3)cc2n1-c1ccnc2c(F)ccc(F)c12 | Vd | 1.3 L/kg

The recorded Vd for Cc1nc2c(-c3nnc[nH]3)cc(-c3ccnc(N)c3F)cc2n1-c1ccnc2c(F)ccc(F)c12 is 0.5 L/kg

* * *

procedure_text: Protein binding in Beagle dog plasma at 1 mg/kg administered as iv infusion for 30 mins and measured after 24 hrs by ESI-LC/MS/MS analysis
Format: ADME, organism-based, Canis lupus familiaris
assay_setup: read-out: PPB (converted)
Catalogue of fraction unbound at 24 h values

compound_structure_string | fraction unbound at 24 h
Cc1nc2c(-c3nnc[nH]3)cc(-c3ccnc(C#N)c3)cc2n1-c1ccnc2c(F)ccc(F)c12 | 0.14

Turning to the following molecule.
In plain terms, Cc1nc2c(-c3nnc[nH]3)cc(-c3ccnc(N)c3F)cc2n1-c1ccnc2c(F)ccc(F)c12 has a documented fraction unbound at 24 h of 0.08

* * *

procedure_text: Volume of distribution at steady state in Beagle dog at 1 mg/kg administered as iv infusion for 30 mins and measured after 24 hrs by ESI-LC/MS/MS analysis
Type: ADME, organism-based, Canis lupus familiaris
assay_setup: in vivo, read-out: Vdss
property_measured: Vd

Consider Cc1nc2c(-c3nnc[nH]3)cc(-c3ccnc(C#N)c3)cc2n1-c1ccnc2c(F)ccc(F)c12 . Its measured Vd is 2.5 L/kg

* * *

procedure_text: Clearance in Sprague-Dawley rat at 1 mg/kg administered as iv infusion for 30 mins and measured after 24 hrs by ESI-LC/MS/MS analysis
Format: ADME, organism-based
assay_setup: in vivo
property_measured: clearance (mL/min/kg)
Report as a plain number; the unit mL/min/kg is understood.

Data point: Cc1nc2c(-c3nnc[nH]3)cc(-c3ccnc(C#N)c3)cc2n1-c1ccnc2c(F)ccc(F)c12 ; clearance = 32.8
